molecular target: GCN2 (Homo sapiens, UniProt Q9P2K8); assay: GCN2 enzymatic endpoint assay: phosphorylation of GFP-eIF2α measured by TR-FRET (Lanthascreen); type: biochemical; settings: tested as described in Example 77; compound and/or hydrochloride, dihydrochloride or trifluoroacetic acid salt; read-out: IC 50 Activity
Sequence (Q9P2K8 whole entry): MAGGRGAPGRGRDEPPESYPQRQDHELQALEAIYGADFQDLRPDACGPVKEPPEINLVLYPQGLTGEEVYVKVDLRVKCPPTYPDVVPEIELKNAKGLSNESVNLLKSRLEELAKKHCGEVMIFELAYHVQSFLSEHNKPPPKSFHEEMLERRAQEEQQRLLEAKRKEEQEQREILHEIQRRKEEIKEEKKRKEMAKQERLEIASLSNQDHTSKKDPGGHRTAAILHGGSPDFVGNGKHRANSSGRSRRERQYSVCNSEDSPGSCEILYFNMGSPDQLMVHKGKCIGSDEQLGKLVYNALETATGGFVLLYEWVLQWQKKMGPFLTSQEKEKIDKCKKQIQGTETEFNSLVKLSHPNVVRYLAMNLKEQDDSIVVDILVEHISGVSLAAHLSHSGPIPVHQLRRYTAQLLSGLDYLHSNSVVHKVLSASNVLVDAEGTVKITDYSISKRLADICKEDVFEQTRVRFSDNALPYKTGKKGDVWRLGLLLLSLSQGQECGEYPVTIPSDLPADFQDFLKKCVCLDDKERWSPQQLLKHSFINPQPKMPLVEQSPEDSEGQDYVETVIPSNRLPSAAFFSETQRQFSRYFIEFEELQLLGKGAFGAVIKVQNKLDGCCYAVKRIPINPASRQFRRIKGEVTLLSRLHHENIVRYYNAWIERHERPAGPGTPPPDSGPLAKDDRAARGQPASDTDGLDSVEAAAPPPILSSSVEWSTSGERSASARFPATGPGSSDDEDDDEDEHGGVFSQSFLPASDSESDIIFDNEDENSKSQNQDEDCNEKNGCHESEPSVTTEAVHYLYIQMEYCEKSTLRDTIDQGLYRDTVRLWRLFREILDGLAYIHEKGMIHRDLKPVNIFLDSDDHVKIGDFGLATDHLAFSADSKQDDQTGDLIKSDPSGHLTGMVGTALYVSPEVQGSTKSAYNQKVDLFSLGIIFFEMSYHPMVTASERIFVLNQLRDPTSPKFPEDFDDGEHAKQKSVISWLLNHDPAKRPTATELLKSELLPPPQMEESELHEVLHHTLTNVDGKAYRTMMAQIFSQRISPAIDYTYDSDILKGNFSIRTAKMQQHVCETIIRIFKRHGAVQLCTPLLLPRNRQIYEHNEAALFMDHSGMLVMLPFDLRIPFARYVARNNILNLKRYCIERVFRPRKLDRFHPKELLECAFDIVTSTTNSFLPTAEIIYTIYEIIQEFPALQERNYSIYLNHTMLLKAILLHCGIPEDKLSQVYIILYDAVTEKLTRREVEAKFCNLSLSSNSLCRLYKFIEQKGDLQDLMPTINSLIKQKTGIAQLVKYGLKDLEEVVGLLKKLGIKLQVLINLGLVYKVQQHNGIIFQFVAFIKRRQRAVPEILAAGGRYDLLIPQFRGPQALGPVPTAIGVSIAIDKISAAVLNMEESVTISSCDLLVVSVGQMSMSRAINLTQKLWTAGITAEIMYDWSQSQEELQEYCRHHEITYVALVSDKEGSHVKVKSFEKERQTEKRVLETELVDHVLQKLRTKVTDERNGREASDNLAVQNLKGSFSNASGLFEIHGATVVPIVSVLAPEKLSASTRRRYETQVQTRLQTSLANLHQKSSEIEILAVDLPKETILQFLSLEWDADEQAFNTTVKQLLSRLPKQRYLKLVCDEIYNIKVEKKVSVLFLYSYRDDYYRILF
pIC50: −log10 of the molar value.
OBSERVATION TYPE: pIC50

>>> print(df.to_string())
                            compound_smiles    test_value
0  O=C(NCCO)[C@@H]1CC[C@@H](Nc2ncc3c(Br)nn(-c4ccc5ncccc5c4)c3n2)C1  6.70 to 7.60
1  N#CC1CN(C(=O)[C@@H]2CC[C@@H](Nc3ncc4c(Br)nn(-c5cc(F)c6ncccc6c5)c4n3)C2)C1        > 7.60
2  Cc1nnc(-c2ccc(-n3nc(Br)c4cnc(N[C@@H]5CC[C@@]6(CCNC6=O)C5)nc43)cc2CCC#N)s1  6.70 to 7.60

====

molecular target: GCN2 (Homo sapiens); assay: GCN2 enzymatic endpoint assay: phosphorylation of GFP-eIF2α measured by TR-FRET (Lanthascreen); type: biochemical; settings: tested as described in Example 77; compound and/or hydrochloride, dihydrochloride or trifluoroacetic acid salt; read-out: IC 50 Activity
pIC50: −log10 of the molar value.
Listed here: items and their measured pIC50.
OBSERVATION TYPE: pIC50

In [3]: df
Out[3]:
                                    compound  observation_type    test_value
 0  CC1(CNC(=O)[C@@H]2CC[C@@H](Nc3ncc4c(Br)nn(-c5cc(F)c6ncccc6c5)c4n3)C2)COC1             pIC50  6.70 to 7.60
 1  CNC(=O)C1(C#N)CC[C@@H](Nc2ncc3c(Br)nn(-c4cc(Cl)cc([C@H](C)N)c4)c3n2)C1 (stereo partly drawn)             pIC50  6.70 to 7.60
 2  CNC(=O)C1(C)CC[C@@H](Nc2ncc3c(Br)nn(-c4cc(CO)cc(OC)c4)c3n2)C1 (stereo partly drawn)             pIC50  6.70 to 7.60
 3  CNC(=O)[C@]1(C)CC[C@@H](Nc2ncc3c(Br)nn(-c4cc(CN)c5nccnc5c4)c3n2)C1             pIC50  6.70 to 7.60
 4  CNC(=O)C1(C)CC[C@@H](Nc2ncc3c(Br)nn(-c4cc(CO)cc(OC)c4)c3n2)C1 (mixture of isomers)             pIC50  6.70 to 7.60
 5  CNC(=O)[C@]1(CCOC)CC[C@@H](Nc2ncc3c(Br)nn(-c4ccc(-c5nnc(C)s5)c(CCC#N)c4)c3n2)C1             pIC50  6.70 to 7.60
 6  CS(=O)(=O)CCNC(=O)[C@@H]1CC[C@@H](Nc2ncc3c(Br)nn(-c4ccc5ncccc5c4)c3n2)C1             pIC50  6.30 to 6.70
 7  C[C@@H]1CN(C(=O)[C@@H]2CC[C@@H](Nc3ncc4c(Br)nn(-c5ccc6ncccc6c5)c4n3)C2)C[C@@H](C)O1             pIC50  6.70 to 7.60
 8  N#Cc1cc(-n2nc(Br)c3cnc(N[C@@H]4CC[C@@H](C(=O)N=S5(=O)CCNCC5)C4)nc32)cc2cccnc12             pIC50  6.70 to 7.60
 9  C[C@@H]1CN(C(=O)[C@@H]2CC[C@@H](Nc3ncc4c(Br)nn(-c5ccc6ncccc6c5)c4n3)C2)C[C@H](C)O1             pIC50  6.30 to 6.70
10  CNC(=O)[C@]1(C)CC[C@@H](Nc2ncc3c(Br)nn(-c4ccc5c(c4)n(C)c(=O)c(=O)n5C)c3n2)C1             pIC50  6.70 to 7.60
11  CNC(=O)[C@]1(C)CC[C@@H](Nc2ncc3c(Br)nn(-c4cc(CCN)c5nccnc5c4)c3n2)C1             pIC50  6.70 to 7.60
